TESTED TARGET: T1, recombinant purified human IL-12 p70 (human, UniProt P29459 23-219)
T1 construct: Disulfide-linked heterodimer of p35 and p40; also called hIL-12; Hu IL-12
T1 sequence 1: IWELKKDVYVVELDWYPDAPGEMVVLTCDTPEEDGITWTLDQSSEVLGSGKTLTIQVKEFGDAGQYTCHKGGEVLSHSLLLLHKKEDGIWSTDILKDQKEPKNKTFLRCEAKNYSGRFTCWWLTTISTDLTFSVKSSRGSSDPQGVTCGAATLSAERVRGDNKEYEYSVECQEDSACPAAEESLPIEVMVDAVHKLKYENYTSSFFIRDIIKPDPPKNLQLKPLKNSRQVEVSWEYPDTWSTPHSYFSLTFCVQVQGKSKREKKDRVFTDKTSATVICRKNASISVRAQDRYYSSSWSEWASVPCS
T1 sequence 2: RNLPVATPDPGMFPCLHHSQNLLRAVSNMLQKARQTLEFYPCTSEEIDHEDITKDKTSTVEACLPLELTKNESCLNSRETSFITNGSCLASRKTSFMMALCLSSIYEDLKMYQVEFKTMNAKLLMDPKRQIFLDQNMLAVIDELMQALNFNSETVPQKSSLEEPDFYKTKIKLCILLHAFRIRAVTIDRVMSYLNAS
TEST DETAILS: SPR (Biacore) as in Example 1.1.B, human IL-12p70
QUANTITY KIND: kon (M⁻¹ s⁻¹)

>>> measured_value("CDR grafted anti IL-12p40 antibody 1A6.2 (antibody, human IgG1, kappa, L234A L235A, V domains shown, Full-length CDR-grafted antibody, COS cells) VH: EVTLKESGPVLVKPTETLTLTCTVSGFSLSTSGMGVSWIRQPPGKALEWLAHIWWDGDNYYNPSLKSRLTISKDTSKSQVVLTMTNMDPVDTATYYCARRTRVNYAMDYWGQGTTVTVSS VL: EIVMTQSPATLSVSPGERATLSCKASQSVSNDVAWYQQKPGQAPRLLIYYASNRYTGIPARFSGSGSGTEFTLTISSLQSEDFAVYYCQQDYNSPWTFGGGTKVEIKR")
100000
>>> measured_value("CDR grafted anti IL-12p40 antibody 1A6.1 (antibody, human IgG1, kappa, L234A L235A, V domains shown, Full-length CDR-grafted antibody, COS cells) VH: EVTLRESGPALVKPTQTLTLTCTFSGFSLSTSGMGVSWIRQPPGKALEWLAHIWWDGDNYYNPSLKSRLTISKDTSKNQVVLTMTNMDPVDTATYYCARRTRVNYAMDYWGQGTTVTVSS VL: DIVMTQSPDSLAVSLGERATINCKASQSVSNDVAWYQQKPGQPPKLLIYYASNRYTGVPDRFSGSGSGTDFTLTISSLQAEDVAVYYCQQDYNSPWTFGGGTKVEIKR")
110000
>>> measured_value("CDR grafted anti IL-12p40 antibody 3G7.2 (antibody, human IgG1, kappa, L234A L235A, V domains shown, Full-length CDR-grafted antibody, COS cells) VH: EVQLVQSGAEVKKPGASVKVSCKASGYTFTDYWIEWVRQAPGQGLEWMGGFSHGSGSTNYNEKFKGRVTMTTDTSTSTAYMELRSLRSDDTAVYYCARRRFRGMDYWGQGTTVTVSS VL: EIVMTQSPATLSVSPGERATLSCKASQSVSNDVAWYQQKPGQAPRLLIYYASNRYTGIPARFSGSGSGTEFTLTISSLQSEDFAVYYCQQDYSSPWSFGGGTKVEIKR")
610000
>>> measured_value("CDR grafted anti IL-12p40 antibody 8E1.1 (antibody, human IgG1, kappa, L234A L235A, V domains shown, Full-length CDR-grafted antibody, COS cells) VH: EVQLVESGGGLVQPGGSLRLSCAASGFTFSDYGMVWVRQAPGKGLEWVGSISSGSSNIYYADTVKGRFTISRDDSKNSLYLQMNSLKTEDTAVYYCARNPYWGQGTTVTVSS VL: DIQMTQSPSSLSASVGDRVTITCKASQNVGTNVAWYQQKPEKAPKSLIYSASHRYSGVPSRFSGSGSGTDFTLTISSLQPEDFATYYCQQYNSYPLTFGGGTKVEIKR")
520000
>>> measured_value("CDR grafted anti IL-12p40 antibody 3G7.1 (antibody, human IgG1, kappa, L234A L235A, V domains shown, Full-length CDR-grafted antibody, COS cells) VH: EVQLVQSGAEVKKPGSSVKVSCKASGGTFSDYWIEWVRQAPGQGLEWMGGFSHGSGSTNYNEKFKGRVTITADKSTSTAYMELSSLRSEDTAVYYCARRRFRGMDYWGQGTTVTVSS VL: DIVMTQSPDSLAVSLGERATINCKASQSVSNDVAWYQQKPGQPPKLLIYYASNRYTGVPDRFSGSGSGTDFTLTISSLQAEDVAVYYCQQDYSSPWSFGGGTKVEIKR")
420000
>>> measured_value("CDR grafted anti IL-12p40 antibody 1D4.1 (antibody, human IgG1, kappa, L234A L235A, V domains shown, Full-length CDR-grafted antibody, COS cells) VH: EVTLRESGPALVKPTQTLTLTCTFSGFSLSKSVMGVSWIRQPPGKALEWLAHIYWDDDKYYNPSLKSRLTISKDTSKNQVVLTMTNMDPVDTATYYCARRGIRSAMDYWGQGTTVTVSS VL: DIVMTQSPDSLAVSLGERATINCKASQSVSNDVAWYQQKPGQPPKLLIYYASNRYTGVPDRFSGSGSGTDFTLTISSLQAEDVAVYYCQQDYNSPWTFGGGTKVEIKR")
260000
>>> measured_value("CDR grafted anti IL-12p40 antibody 1D4.2 (antibody, human IgG1, kappa, L234A L235A, V domains shown, Full-length CDR-grafted antibody, COS cells) VH: EVTLKESGPVLVKPTETLTLTCTVSGFSLSKSVMGVSWIRQPPGKALEWLAHIYWDDDKYYNPSLKSRLTISKDTSKSQVVLTMTNMDPVDTATYYCARRGIRSAMDYWGQGTTVTVSS VL: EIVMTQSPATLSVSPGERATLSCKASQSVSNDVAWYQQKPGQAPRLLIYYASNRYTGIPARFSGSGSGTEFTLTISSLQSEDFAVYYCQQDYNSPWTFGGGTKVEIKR")
160000
>>> measured_value("CDR grafted anti IL-12p40 antibody 1A6.5 (antibody, human IgG1, kappa, L234A L235A, V domains shown, Full-length CDR-grafted antibody, COS cells) VH: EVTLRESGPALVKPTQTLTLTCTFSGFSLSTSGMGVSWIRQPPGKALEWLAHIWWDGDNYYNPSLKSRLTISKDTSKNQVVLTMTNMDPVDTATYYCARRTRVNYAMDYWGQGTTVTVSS VL: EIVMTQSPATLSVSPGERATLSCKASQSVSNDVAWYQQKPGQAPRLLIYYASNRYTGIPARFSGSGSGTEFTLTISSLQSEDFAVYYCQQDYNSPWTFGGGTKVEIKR")
130000
>>> measured_value("CDR grafted anti IL-12p40 antibody 1D4.3 (antibody, human IgG1, kappa, L234A L235A, V domains shown, Full-length CDR-grafted antibody, COS cells) VH: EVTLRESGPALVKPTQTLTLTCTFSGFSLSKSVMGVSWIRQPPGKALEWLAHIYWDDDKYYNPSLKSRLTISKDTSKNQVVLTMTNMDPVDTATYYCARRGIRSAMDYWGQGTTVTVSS VL: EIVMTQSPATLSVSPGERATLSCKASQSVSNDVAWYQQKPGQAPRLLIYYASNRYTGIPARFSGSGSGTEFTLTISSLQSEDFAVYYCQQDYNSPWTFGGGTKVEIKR")
210000
